Tested on: S. aureus (MSSA) ATCC 9144
Experiment Notes: microbe, parasite or virus in culture
Format: cell-based, Staphylococcus aureus
Measurement Context: S. aureus (MSSA) ATCC 9144 (S); shown in µM
Where a SMILES comes first, the peptide text is derived from it.
Quantity Kind: Modal MIC (µM)
Value expressed in µM; do not type the unit.

Consider the following illustrative entries.
CC(C)C[C@H](NC(=O)[C@H](CCCCN)NC(=O)[C@H](CCCCN)NC(=O)[C@H](C)NC(=O)[C@H](CC(C)C)NC(=O)[C@H](CCCCN)NC(=O)[C@H](CO)NC(=O)[C@H](CCCCN)NC(=O)[C@H](Cc1c[nH]c2ccccc12)NC(=O)[C@H](C)NC(=O)[C@H](CCCCN)NC(=O)[C@H](CCCCN)NC(=O)[C@H](CC(C)C)NC(=O)[C@H](Cc1ccccc1)NC(=O)[C@H](CO)NC(=O)CN)C(N)=O [PS-PB-16a] (H-GSFLKKAWKSKLAKKL-NH2) | 17
CC[C@H](C)[C@H](N)C(=O)N[C@@H](CC(C)C)C(=O)NCC(=O)N[C@@H](CCCCN)C(=O)N[C@H](C(=O)N[C@@H](Cc1c[nH]c2ccccc12)C(=O)N[C@@H](CCCCN)C(=O)N1CCC[C@H]1C(=O)N[C@H](C(=O)N[C@@H](CCCCN)C(=O)N[C@@H](CCCCN)C(=O)N[C@@H](CC(C)C)C(=O)N[C@@H](Cc1ccccc1)C(N)=O)[C@@H](C)CC)[C@@H](C)CC [K7P8K11-IsCTa] (H-ILGKIWKPIKKLF-NH2) | 4.9
CC[C@H](C)[C@H](NC(=O)[C@H](Cc1c[nH]c2ccccc12)NC(=O)[C@H](CC(=O)O)NC(=O)[C@H](Cc1c[nH]c2ccccc12)NC(=O)[C@@H](NC(=O)[C@H](CCCCN)NC(=O)CN)C(C)C)C(=O)N[C@@H](CCCCN)C(=O)N[C@@H](CO)C(=O)N[C@H](C(=O)N[C@@H](C)C(=O)N[C@@H](CCCCN)C(=O)N[C@@H](CCCCN)C(=O)N[C@@H](CC(C)C)C(=O)N[C@@H](Cc1c[nH]c2ccccc12)C(=O)N[C@@H](CC(N)=O)C(N)=O)[C@@H](C)O [Opis16a] (H-GKVWDWIKSTAKKLWN-NH2) | 1
CC[C@H](C)[C@H](N)C(=O)N[C@@H](CC(C)C)C(=O)N[C@@H](CCCCN)C(=O)N[C@@H](CCCCN)C(=O)N[C@H](C(=O)N[C@@H](Cc1c[nH]c2ccccc12)C(=O)N[C@@H](CCC(=O)O)C(=O)NCC(=O)N[C@H](C(=O)N[C@@H](CCCCN)C(=O)N[C@@H](CO)C(=O)N[C@@H](CC(C)C)C(=O)N[C@@H](Cc1ccccc1)C(N)=O)[C@@H](C)CC)[C@@H](C)CC [K3-IsCTa] (H-ILKKIWEGIKSLF-NH2) | 5
CC[C@H](C)[C@H](NC(=O)[C@H](CCCCN)NC(=O)[C@H](CCC(=O)O)NC(=O)[C@H](Cc1c[nH]c2ccccc12)NC(=O)[C@H](Cc1ccccc1)NC(=O)[C@H](CCCCN)NC(=O)CNC(=O)[C@H](CC(C)C)NC(=O)[C@H](C)N)C(=O)N[C@@H](CCCCN)C(=O)N[C@@H](CO)C(=O)N[C@@H](CC(C)C)C(=O)N[C@@H](Cc1ccccc1)C(N)=O [A1F5K8-IsCTa] (H-ALGKFWEKIKSLF-NH2) | 2.5

Next item in the queue.
Q: Quick check: Modal MIC of CC[C@H](C)[C@H](NC(=O)[C@H](C)NC(=O)[C@H](CCCCN)NC(=O)[C@@H]1CCCN1C(=O)[C@@H](NC(=O)[C@H](CC(C)C)NC(=O)[C@H](CCCCN)NC(=O)[C@H](Cc1ccccc1)NC(=O)[C@H](CC(C)C)NC(=O)[C@@H](N)Cc1ccccc1)[C@@H](C)CC)C(=O)N[C@@H](CCCCN)C(=O)N[C@@H](CCCCN)C(=O)N[C@@H](CC(C)C)C(=O)N[C@H](C(=O)N[C@@H](CO)C(=O)N[C@@H](CCCCN)C(=O)N[C@@H](Cc1ccccc1)C(=O)N[C@@H](CCCCN)C(N)=O)[C@@H](C)CC [AamAP1-Lysa] (H-FLFKLIPKAIKKLISKFK-NH2) ?
Ans: 1.8

---

Experiment Notes: RP-HPLC ElutionTime as indicator of hydrophobicity
Assay type: physicochemical
Measurement Context: indicator of overall hydrophobicity; semipreparative RP-HPLC, Waters SymmetryPrep C8, water/ACN gradient with 0.1% TFA, 8 mL/min, 25 °C, 254 nm
Where a SMILES comes first, the peptide text is derived from it.
Each entry below carries its reported ElutionTime (RP-HPLC retention time of major fraction).
Report only the number, with the unit min understood.

CC(C)[C@H](NC(=O)CNC(=O)[C@H](CCCNC(=N)N)NC(=O)[C@H](CCCNC(=N)N)NC(=O)[C@H](CS)NC(=O)[C@@H](NC(=O)[C@H](CS)NC(=O)[C@@H](N)CCCNC(=N)N)C(C)C)C(=O)N[C@@H](CS)C(=O)O [ThetaDefB] (H-RCVCRRGVC-OH; N-terminus and C-terminus assumed) | 20

Q: Which measured ElutionTime (RP-HPLC retention time of major fraction) value corresponds to CC(C)[C@H](NC(=O)CNC(=O)[C@H](CCCNC(=N)N)NC(=O)[C@H](CCCNC(=N)N)NC(=O)[C@H](CS)NC(=O)[C@@H](NC(=O)[C@H](CS)NC(=O)[C@@H](N)CCCNC(=N)N)C(C)C)C(=O)N[C@@H](CS)C(=O)N[C@@H](CCCNC(=N)N)C(=O)N[C@@H](CS)C(=O)N[C@H](C(=O)N[C@@H](CS)C(=O)N[C@@H](CCCNC(=N)N)C(=O)N[C@@H](CCCNC(=N)N)C(N)=O)C(C)C [BTD15a] (H-RCVCRRGVCRCVCRR-NH2; N-terminus assumed) ?
Ans: 20

Q: // returns reported ElutionTime (RP-HPLC retention time of major fraction) for input CC(C)[C@H](NC(=O)CNC(=O)[C@H](CCCNC(=N)N)NC(=O)[C@@H](N)CCCNC(=N)N)C(=O)N[C@@H](CS)C(=O)N[C@@H](CCCNC(=N)N)C(=O)N[C@@H](CS)C(=O)N[C@H](C(=O)N[C@@H](CS)C(=O)N[C@@H](CCCNC(=N)N)C(=O)N[C@@H](CCCNC(=N)N)C(N)=O)C(C)C [BTD11a] (H-RRGVCRCVCRR-NH2; N-terminus assumed)
Ans: 16

---

Here the recorded Modal MIC90 is given for each entry.
System: C. glabrata NCPF 8018
Experiment Notes: microbe, parasite or virus in culture
Format: cell-based
Measurement Context: C. glabrata NCPF 8018; shown in µM
Where a SMILES comes first, the peptide text is derived from it.

CC(C)C[C@H](NC(=O)[C@H](CCCCN)NC(=O)[C@H](CCCCN)NC(=O)[C@H](C)NC(=O)[C@H](CC(C)C)NC(=O)[C@H](CCCCN)NC(=O)[C@H](CO)NC(=O)[C@H](CCCCN)NC(=O)[C@H](Cc1c[nH]c2ccccc12)NC(=O)[C@H](C)NC(=O)[C@H](CCCCN)NC(=O)[C@H](CCCCN)NC(=O)[C@H](CC(C)C)NC(=O)[C@H](Cc1ccccc1)NC(=O)[C@H](CO)NC(=O)CN)C(N)=O [PS-PB-16a] (H-GSFLKKAWKSKLAKKL-NH2) | > 67.8 µM
CC[C@H](C)[C@H](N)C(=O)N[C@@H](CCCNC(=N)N)C(=O)NCC(=O)N[C@@H](Cc1ccc(O)cc1)C(=O)N[C@@H](CCCCN)C(=O)NCC(=O)NCC(=O)N[C@@H](Cc1ccc(O)cc1)C(=O)N[C@@H](CS)C(=O)N[C@@H](CCCCN)C(N)=O [Os(3-12)a] (H-IRGYKGGYCK-NH2) | > 112 µM
CC(C)C[C@H](NC(=O)[C@H](CCCCN)NC(=O)[C@H](CO)NC(=O)[C@H](CCCCN)NC(=O)[C@@H](N)Cc1c[nH]c2ccccc12)C(=O)N[C@@H](C)C(=O)N[C@@H](CCCCN)C(=O)N[C@@H](CCCCN)C(N)=O [PS-PB-8a] (H-WKSKLAKK-NH2) | > 127.2 µM

Q: State the recorded Modal MIC90 for this entry: CC[C@H](C)[C@H](N)C(=O)N[C@@H](CC(C)C)C(=O)N[C@@H](CCCCN)C(=O)N[C@@H](CCCCN)C(=O)N[C@H](C(=O)N[C@@H](Cc1c[nH]c2ccccc12)C(=O)N[C@@H](CCC(=O)O)C(=O)NCC(=O)N[C@H](C(=O)N[C@@H](CCCCN)C(=O)N[C@@H](CO)C(=O)N[C@@H](CC(C)C)C(=O)N[C@@H](Cc1ccccc1)C(N)=O)[C@@H](C)CC)[C@@H](C)CC [K3-IsCTa] (H-ILKKIWEGIKSLF-NH2)
Ans: 39.8 µM

Q: Name the reported Modal MIC90 value associated with the molecule CC[C@H](C)[C@H](NC(=O)[C@@H](N)Cc1c[nH]c2ccccc12)C(=O)N[C@@H](CCCCN)C(=O)N[C@@H](CO)C(=O)N[C@H](C(=O)N[C@@H](C)C(=O)N[C@@H](CCCCN)C(=O)N[C@@H](CCCCN)C(N)=O)[C@@H](C)O [Opis8a] (H-WIKSTAKK-NH2)
Ans: > 133.2 µM

Reference source for all entries: paper PMC11191095
